Target: Alpha-2A adrenergic receptor (Homo sapiens, UniProt P08913); note: in other assays of this panel Not Active means under 50% inhibition at 10 µM
Sequence (P08913 whole entry): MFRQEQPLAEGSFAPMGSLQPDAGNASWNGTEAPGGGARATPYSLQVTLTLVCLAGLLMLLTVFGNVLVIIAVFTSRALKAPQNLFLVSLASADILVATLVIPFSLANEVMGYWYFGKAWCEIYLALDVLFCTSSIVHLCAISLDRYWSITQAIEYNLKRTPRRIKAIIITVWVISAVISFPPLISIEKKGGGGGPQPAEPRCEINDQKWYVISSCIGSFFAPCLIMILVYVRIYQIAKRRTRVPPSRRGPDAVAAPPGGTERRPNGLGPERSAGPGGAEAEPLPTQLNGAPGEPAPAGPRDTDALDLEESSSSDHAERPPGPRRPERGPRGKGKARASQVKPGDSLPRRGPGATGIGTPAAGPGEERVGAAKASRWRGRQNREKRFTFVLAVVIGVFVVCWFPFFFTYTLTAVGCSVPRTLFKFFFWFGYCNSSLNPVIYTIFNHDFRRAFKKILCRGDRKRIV
Format: cell membranes, Sf9, Membrane
Conditions: sf9
assay-endpoint: IC50

# annotated cases, reported IC50 shown
compound | tgt | IC50
COc1c(N2CCNC(C)C2)c(F)cc2c(=O)c(C(=O)O)cn(C3CC3)c12 (centres undefined) | Alpha-2A adrenergic receptor (Homo sapiens, UniProt P08913) | Not Active
C=C1C(=O)O[C@@H]2C3O[C@]3(C)CC/C=C(\C)CC[C@@H]12 (some centres undefined) | Alpha-2A adrenergic receptor (Homo sapiens, UniProt P08913) | Not Active
c1ccc2c(c1)cc1ccc3cccc4ccc2c1c34 | Alpha-2A adrenergic receptor (Homo sapiens, UniProt P08913) | Not Active
CC(=O)CCCCn1c(=O)c2c(ncn2C)n(C)c1=O | Alpha-2A adrenergic receptor (Homo sapiens, UniProt P08913) | Not Active
NCC1(CC(=O)O)CCCCC1 | Alpha-2A adrenergic receptor (Homo sapiens, UniProt P08913) | Not Active

In: Quote IC50 reported for Nc1ccc(S(=O)(=O)Nc2ccnn2-c2ccccc2)cc1 please.
Out: Not Active

In: Quote IC50 reported for Nc1nnc(-c2cccc(Cl)c2Cl)c(N)n1 please.
Out: Not Active

In: Quote IC50 reported for CC1CN(c2cc3c(cc2F)c(=O)c(C(=O)O)cn3-c2ccc(F)cc2F)CCN1 (centres undefined) please.
Out: Not Active

In: Quote IC50 reported for O=C1NC(=O)C(c2ccccc2)(c2ccccc2)N1 please.
Out: Not Active

In: Quote IC50 reported for CC(=O)S[C@@H]1CC2=CC(=O)CC[C@]2(C)[C@H]2CC[C@@]3(C)[C@@H](CC[C@@]34CCC(=O)O4)[C@H]12 please.
Out: Not Active

###

Target: Muscarinic acetylcholine receptor M4 (Homo sapiens, UniProt P08173); note: in other assays of this panel Not Active means under 50% inhibition at 10 µM
Sequence (P08173 whole entry): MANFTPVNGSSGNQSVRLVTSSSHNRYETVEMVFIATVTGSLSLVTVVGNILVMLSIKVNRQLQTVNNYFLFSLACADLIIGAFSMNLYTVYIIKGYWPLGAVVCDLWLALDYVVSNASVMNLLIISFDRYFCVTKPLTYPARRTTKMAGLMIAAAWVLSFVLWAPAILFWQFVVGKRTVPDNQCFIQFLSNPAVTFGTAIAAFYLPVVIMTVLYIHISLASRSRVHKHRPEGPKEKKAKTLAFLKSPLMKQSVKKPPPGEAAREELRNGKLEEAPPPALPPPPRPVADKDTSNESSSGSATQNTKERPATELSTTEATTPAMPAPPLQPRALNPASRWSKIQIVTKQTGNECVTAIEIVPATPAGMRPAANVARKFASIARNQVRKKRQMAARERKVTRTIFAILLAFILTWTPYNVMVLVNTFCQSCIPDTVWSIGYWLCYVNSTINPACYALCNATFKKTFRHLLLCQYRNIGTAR
Type: cell membranes, CHO-K1, Membrane
Conditions: read-out: Ki
assay-endpoint: Ki (nM)
Report as a plain number; the unit nM is understood.

# annotated cases, reported Ki shown
compound | uom | Ki
COc1ccc(CCN2CCC(Nc3nc4ccccc4n3Cc3ccc(F)cc3)CC2)cc1 [ASTEMIZOLE] | nM | 259
CN1CCN2c3ccccc3Cc3ccccc3C2C1 (stereo unspecified) [MIANSERIN] | nM | 288
O=C1c2c(O)ccc(O)c2C(=O)c2c(NCCNCCO)ccc(NCCNCCO)c21 [MITOXANTRONE] | nM | 89.8
Clc1ccccc1C(c1ccccc1)(c1ccccc1)n1ccnc1 [CLOTRIMAZOLE] | nM | 1640
Fc1ccc([C@@H]2CCNC[C@H]2COc2ccc3c(c2)OCO3)cc1 [PAROXETINE] | nM | 34

Please turn your attention to the following entry.
In: Quote Ki reported for CN(C)CCCN1c2ccccc2CCc2ccc(Cl)cc21 [CLOMIPRAMINE] please.
Out: 13

###

Molecular target: Tyrosine-protein kinase Lck (Homo sapiens)
Sequence (P06239 whole entry): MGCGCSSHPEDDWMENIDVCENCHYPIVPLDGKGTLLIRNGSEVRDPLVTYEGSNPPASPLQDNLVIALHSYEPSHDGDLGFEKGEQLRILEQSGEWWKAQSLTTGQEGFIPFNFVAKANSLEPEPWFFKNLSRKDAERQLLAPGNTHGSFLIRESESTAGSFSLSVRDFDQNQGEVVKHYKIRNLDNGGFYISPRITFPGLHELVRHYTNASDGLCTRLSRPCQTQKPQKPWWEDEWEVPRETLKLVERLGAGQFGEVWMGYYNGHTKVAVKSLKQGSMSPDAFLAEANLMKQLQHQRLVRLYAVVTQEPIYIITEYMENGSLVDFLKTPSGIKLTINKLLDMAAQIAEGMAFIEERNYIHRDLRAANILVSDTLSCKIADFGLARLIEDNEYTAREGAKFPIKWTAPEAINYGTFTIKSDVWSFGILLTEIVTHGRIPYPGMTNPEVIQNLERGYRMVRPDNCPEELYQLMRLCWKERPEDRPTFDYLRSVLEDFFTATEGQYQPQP
Assay: DRUGMATRIX: Protein Tyrosine Kinase, LCK enzyme inhibition (substrate: Poly(Glu:Tyr))
Type: cell-based, Insect cells
Details: insect cells; Not Active = under 50% inhibition at 10 µM; read-out: IC50
assay-endpoint: IC50 (µM)
Report as a plain number; the unit µM is understood.

In: Quote IC50 reported for CISPLATIN please.
Out: 22.9
